meta.source: the supplement of paper PMC10307832

- Test system: SK-LU-1
- assay comment: relative viability (nuclei count vs DMSO), 5 days (fraction); higher = more cells survive
- details: first compound 0.08 µM
measured property: relative viability

molecule="O=c1[nH]c2ccccc2n1C1CCN(CCCC(c2ccc(F)cc2)c2ccc(F)cc2)CC1 [Pimozide] + CS(=O)(=O)CCNCc1ccc(-c2ccc3ncnc(Nc4ccc(OCc5cccc(F)c5)c(Cl)c4)c3c2)o1 [Lapatinib] (partner 2 µM)" measured_property="relative viability" reported=0.773
molecule="O=c1[nH]c2ccccc2n1C1CCN(CCCC(c2ccc(F)cc2)c2ccc(F)cc2)CC1 [Pimozide] + Cc1nc(NC(=O)N2CCC[C@H]2C(N)=O)sc1-c1ccnc(C(C)(C)C(F)(F)F)c1 [Alpelisib] (partner 2 µM)" measured_property="relative viability" reported=0.961
molecule="O=c1[nH]c2ccccc2n1C1CCN(CCCC(c2ccc(F)cc2)c2ccc(F)cc2)CC1 [Pimozide] + C[C@@H](Oc1cc(-c2cnn(C3CCNCC3)c2)cnc1N)c1c(Cl)ccc(F)c1Cl [Crizotinib] (partner 1 µM)" measured_property="relative viability" reported=0.895

====

Recorded measurements of relative viability, one per entry
- Tested on: SK-MES-1
- assay comment: relative viability (nuclei count vs DMSO), 5 days (fraction); higher = more cells survive
- details: first compound 0.5 µM
measured property: relative viability

compound="COc1cc2nccc(Oc3ccc(NC(=O)Nc4cc(C)on4)c(Cl)c3)c2cc1OC [Tivozanib] + CC(=O)Nc1cccc(-n2c(=O)n(C3CC3)c(=O)c3c(Nc4ccc(I)cc4F)n(C)c(=O)c(C)c32)c1 [Trametinib] (partner 0.02 µM)" reported=0.7
compound="COc1cc2nccc(Oc3ccc(NC(=O)Nc4cc(C)on4)c(Cl)c3)c2cc1OC [Tivozanib] + Cc1nc(NC(=O)N2CCC[C@H]2C(N)=O)sc1-c1ccnc(C(C)(C)C(F)(F)F)c1 [Alpelisib] (partner 2 µM)" reported=0.857
compound="Nc1ccn([C@@H]2O[C@H](CO)[C@@H](O)[C@@H]2O)c(=O)n1 [Cytarabine] + CS(=O)(=O)N1CCN(Cc2cc3nc(-c4cccc5[nH]ncc45)nc(N4CCOCC4)c3s2)CC1 [Pictilisib] (partner 1 µM)" reported=0.205

====

- Test system: EKVX
- assay comment: relative viability (nuclei count vs DMSO), 5 days (fraction); higher = more cells survive
- details: first compound 0.5 µM
Cut-off 0.5 on relative viability: below means 1 (yes), at or above means 0 (no).

compound="Nc1ccn([C@@H]2O[C@H](CO)[C@@H](O)[C@@H]2O)c(=O)n1 [Cytarabine] + Nc1ncn([C@H]2C[C@H](O)[C@@H](CO)O2)c(=O)n1 [Decitabine] (partner 2 µM)" assigned_class="1 (yes)"
compound="Nc1ccn([C@@H]2O[C@H](CO)[C@@H](O)[C@@H]2O)c(=O)n1 [Cytarabine] + Cc1cc(Nc2cc(N3CCN(C)CC3)nc(Sc3ccc(NC(=O)C4CC4)cc3)n2)n[nH]1 [Tozasertib] (partner 0.1 µM)" assigned_class="1 (yes)"
compound="Nc1ccn([C@@H]2O[C@H](CO)[C@@H](O)[C@@H]2O)c(=O)n1 [Cytarabine] + Cc1nc(Nc2ncc(C(=O)Nc3c(C)cccc3Cl)s2)cc(N2CCN(CCO)CC2)n1 [Dasatinib] (partner 0.075 µM)" assigned_class="1 (yes)"
compound="COc1cc2nccc(Oc3ccc(NC(=O)Nc4cc(C)on4)c(Cl)c3)c2cc1OC [Tivozanib] + C[C@@H](Oc1cc(-c2cnn(C3CCNCC3)c2)cnc1N)c1c(Cl)ccc(F)c1Cl [Crizotinib] (partner 1 µM)" assigned_class="0 (no)"
compound="COc1cc2nccc(Oc3ccc(NC(=O)Nc4cc(C)on4)c(Cl)c3)c2cc1OC [Tivozanib] + CC1(C)CCC(c2ccc(Cl)cc2)=C(CN2CCN(c3ccc(C(=O)NS(=O)(=O)c4ccc(N[C@H](CCN5CCOCC5)CSc5ccccc5)c(S(=O)(=O)C(F)(F)F)c4)cc3)CC2)C1 [Navitoclax] (partner 0.5 µM)" assigned_class="0 (no)"
compound="COc1cc2nccc(Oc3ccc(NC(=O)Nc4cc(C)on4)c(Cl)c3)c2cc1OC [Tivozanib] + Cc1cc(Nc2cc(N3CCN(C)CC3)nc(Sc3ccc(NC(=O)C4CC4)cc3)n2)n[nH]1 [Tozasertib] (partner 0.1 µM)" assigned_class="1 (yes)"
compound="COc1cc2nccc(Oc3ccc(NC(=O)Nc4cc(C)on4)c(Cl)c3)c2cc1OC [Tivozanib] + O=C(c1cc(Cc2n[nH]c(=O)c3ccccc23)ccc1F)N1CCN(C(=O)C2CC2)CC1 [Olaparib] (partner 8 µM)" assigned_class="0 (no)"
compound="COc1cc2nccc(Oc3ccc(NC(=O)Nc4cc(C)on4)c(Cl)c3)c2cc1OC [Tivozanib] + Cc1nc(NC(=O)N2CCC[C@H]2C(N)=O)sc1-c1ccnc(C(C)(C)C(F)(F)F)c1 [Alpelisib] (partner 2 µM)" assigned_class="0 (no)"
compound="COc1cc2nccc(Oc3ccc(NC(=O)Nc4cc(C)on4)c(Cl)c3)c2cc1OC [Tivozanib] + CCNC(=O)c1noc(-c2cc(C(C)C)c(O)cc2O)c1-c1ccc(CN2CCOCC2)cc1 [Luminespib] (partner 0.01 µM)" assigned_class="0 (no)"
compound="COc1cc2nccc(Oc3ccc(NC(=O)Nc4cc(C)on4)c(Cl)c3)c2cc1OC [Tivozanib] + NC(=O)Nc1cc(-c2cccc(F)c2)sc1C(=O)N[C@H]1CCCNC1 [AZD7762] (partner 0.2 µM)" assigned_class="0 (no)"
compound="Nc1ccn([C@@H]2O[C@H](CO)[C@@H](O)[C@@H]2O)c(=O)n1 [Cytarabine] + COc1cccc2cc(-c3nc([C@H]4CC[C@H](C(=O)O)CC4)n4ncnc(N)c34)[nH]c12 [OSI-027] (partner 0.5 µM)" assigned_class="1 (yes)"
compound="COc1cc2nccc(Oc3ccc(NC(=O)Nc4cc(C)on4)c(Cl)c3)c2cc1OC [Tivozanib] + C[C@]1(O)C[C@@H](c2nc(-c3ccc4ccc(-c5ccccc5)nc4c3)c3c(N)nccn32)C1 [Linsitinib] (partner 1 µM)" assigned_class="0 (no)"

====

Each entry below carries its recorded relative viability.
- Tested on: NCI-H1395
- assay comment: relative viability (nuclei count vs DMSO), 5 days (fraction); higher = more cells survive
- details: first compound 0.006325 µM
measured property: relative viability

compound="CC(=O)O[C@@]12CO[C@@H]1C[C@H](O)[C@@]1(C)C(=O)[C@H](O)C3=C(C)[C@@H](OC(=O)[C@H](O)[C@@H](NC(=O)OC(C)(C)C)c4ccccc4)C[C@@](O)([C@@H](OC(=O)c4ccccc4)[C@H]21)C3(C)C [Docetaxel] + CCNC(=O)c1noc(-c2cc(C(C)C)c(O)cc2O)c1-c1ccc(CN2CCOCC2)cc1 [Luminespib] (partner 0.01 µM)" reported=0.391
compound="CC(=O)O[C@@]12CO[C@@H]1C[C@H](O)[C@@]1(C)C(=O)[C@H](O)C3=C(C)[C@@H](OC(=O)[C@H](O)[C@@H](NC(=O)OC(C)(C)C)c4ccccc4)C[C@@](O)([C@@H](OC(=O)c4ccccc4)[C@H]21)C3(C)C [Docetaxel] + Cc1cc(Nc2cc(N3CCN(C)CC3)nc(Sc3ccc(NC(=O)C4CC4)cc3)n2)n[nH]1 [Tozasertib] (partner 0.1 µM)" reported=0.372
compound="CC(=O)O[C@@]12CO[C@@H]1C[C@H](O)[C@@]1(C)C(=O)[C@H](O)C3=C(C)[C@@H](OC(=O)[C@H](O)[C@@H](NC(=O)OC(C)(C)C)c4ccccc4)C[C@@](O)([C@@H](OC(=O)c4ccccc4)[C@H]21)C3(C)C [Docetaxel] + CC1(C)CCC(c2ccc(Cl)cc2)=C(CN2CCN(c3ccc(C(=O)NS(=O)(=O)c4ccc(N[C@H](CCN5CCOCC5)CSc5ccccc5)c(S(=O)(=O)C(F)(F)F)c4)cc3)CC2)C1 [Navitoclax] (partner 0.5 µM)" reported=0.394
compound="CC(=O)O[C@@]12CO[C@@H]1C[C@H](O)[C@@]1(C)C(=O)[C@H](O)C3=C(C)[C@@H](OC(=O)[C@H](O)[C@@H](NC(=O)OC(C)(C)C)c4ccccc4)C[C@@](O)([C@@H](OC(=O)c4ccccc4)[C@H]21)C3(C)C [Docetaxel] + N=C(N)NC(=N)NCCc1ccccc1 [Phenformin] (partner 250 µM)" reported=0.283
compound="CC(=O)O[C@@]12CO[C@@H]1C[C@H](O)[C@@]1(C)C(=O)[C@H](O)C3=C(C)[C@@H](OC(=O)[C@H](O)[C@@H](NC(=O)OC(C)(C)C)c4ccccc4)C[C@@](O)([C@@H](OC(=O)c4ccccc4)[C@H]21)C3(C)C [Docetaxel] + CC(=O)Nc1cccc(-n2c(=O)n(C3CC3)c(=O)c3c(Nc4ccc(I)cc4F)n(C)c(=O)c(C)c32)c1 [Trametinib] (partner 0.02 µM)" reported=0.467
